- PROTOCOL NOTES: Number and type of adverse effects reported in treated canines
- Type: in vivo
- REPORTED CONDITIONS: canine subjects with cancer; diarrhea, vomiting, inappetence, lethargy, skin lesions, liver enzymes, cardiac toxicity, hemorrhagic gastroenteritis monitored; cohorts 192, 94, 162, 275, 89, 83, 9 subjects
Form field: subjects with clinically reported outcomes that experienced adverse effects (one value per entry).
METRIC NAME: subjects with clinically reported outcomes that experienced adverse effects (%)

INSERT INTO assay_data (compound, unit_abbrev, result_value) VALUES
  ('CO[C@H]1C[C@@H]2CC[C@@H](C)[C@@](O)(O2)C(=O)C(=O)N2CCCC[C@H]2C(=O)O[C@H]([C@H](C)C[C@@H]2CC[C@@H](O)[C@H](OC)C2)CC(=O)[C@H](C)/C=C(\C)[C@@H](O)[C@@H](OC)C(=O)[C@H](C)C[C@H](C)/C=C/C=C/C=C/1C [Rapamycin]', '%', 21),
  ('C[C@@H](Oc1cc(-c2cnn(C3CCNCC3)c2)cnc1N)c1c(Cl)ccc(F)c1Cl [Crizotinib]', '%', 43),
  ('CC(=O)Nc1cccc(-n2c(=O)n(C3CC3)c(=O)c3c(Nc4ccc(I)cc4F)n(C)c(=O)c(C)c32)c1 [Trametinib]', '%', 24),
  ('O=C(CCCCCCC(=O)Nc1ccccc1)NO [Vorinostat]', '%', 34),
  ('CS(=O)(=O)CCNCc1ccc(-c2ccc3ncnc(Nc4ccc(OCc5cccc(F)c5)c(Cl)c4)c3c2)o1 [Lapatinib]', '%', 22),
  ('Cc1nc(Nc2ncc(C(=O)Nc3c(C)cccc3Cl)s2)cc(N2CCN(CCO)CC2)n1 [Dasatinib]', '%', 31);
